Target: T1, Human GPR7 (human, UniProt P48145 1-328)
T1 construct: Full-length receptor expressed in CHO dhfr- cells; also called Human GPR7 receptor; GPR7 receptor
T1 sequence: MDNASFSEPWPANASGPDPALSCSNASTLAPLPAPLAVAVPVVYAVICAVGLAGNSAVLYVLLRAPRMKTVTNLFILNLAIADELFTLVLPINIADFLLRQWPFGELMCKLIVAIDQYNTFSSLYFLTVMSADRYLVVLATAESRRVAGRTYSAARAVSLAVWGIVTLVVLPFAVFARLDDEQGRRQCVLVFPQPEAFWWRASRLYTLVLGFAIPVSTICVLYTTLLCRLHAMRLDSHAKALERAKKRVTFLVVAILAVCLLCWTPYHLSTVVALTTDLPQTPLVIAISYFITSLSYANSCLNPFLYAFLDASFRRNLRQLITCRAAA
Experiment: competition with [125I-Tyr10]-hGPR8L(1-23), membrane fraction of GPR7 expressing CHO cells
Could you mark each record Fulfilled if its IC50 falls strictly under 1000 nM, and Not fulfilled if it equals or exceeds it?

Worked examples, 3 binders total:
WYKHVASPRYHTVGRAAG (also called hGPR8L(1-18)) [Human GPR8 ligand (1-18)] :: Not fulfilled
HVASPRYHTVGRAAGLLMGL (also called hGPR8L(4-23)) [Human GPR8 ligand (4-23)] :: Not fulfilled
WYKHTASPRYHTVGRAAGLLMGL (also called pGPR8L(1-23); porcine homologue of GPR8 ligand peptide) [porcine GPR8 ligand (1-23)] :: Fulfilled

Now take the following binder into account.
Q: Identify whether the binder XYKHVASPRYHTVGRAAGLLMGL (N-alpha-acetyl on Trp 1, also called Ac-hGPR8L(1-23)) [[N^α-Acetyl-Trp^1]-Human GPR8 ligand (1-23)] records IC50 below 1000 nM.
Result: Fulfilled
